target: Cell-associated proTGFβ1 (hGARP-proTGFβ1 and hLRRC33-proTGFβ1 complexes); test: Octet (BLI); IgG1 from yeast; mean of hGARP and hLRRC33
Each record here notes measured Cell AVRG (average KD).

- binder: "Ab11 (antibody, V domains shown) VH: EVQLLESGGGLVQPGGSLRLSCAASGFTFRNYAMSWVRQAPGKGLEWVSSISGSGGATYYADSVKGRFTISRDNSKNTLYLQMNSLRAEDTAVYYCARVSSGHWDFDYWGQGTLVTVSS VL: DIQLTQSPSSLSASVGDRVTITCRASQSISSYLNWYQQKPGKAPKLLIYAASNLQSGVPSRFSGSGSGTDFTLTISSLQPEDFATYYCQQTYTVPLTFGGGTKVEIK"
  Cell AVRG (average KD) [nM]: 0.699
- binder: "Ab12 (antibody, V domains shown) VH: QVQLVESGGGVVQPGRSLRLSCAASGFTFSDYAMVWVRQAPGKGLEWVSAISGSGFTTYYADSVKGRFTISRDNSKNTLYLQMNSLRAEDTAVYYCARVSSGHWDFDYWGQGTLVTVSS VL: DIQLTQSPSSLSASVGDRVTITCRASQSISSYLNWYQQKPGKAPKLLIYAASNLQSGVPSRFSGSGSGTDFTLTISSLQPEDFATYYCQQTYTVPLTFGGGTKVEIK"
  Cell AVRG (average KD) [nM]: 3.89
- binder: "Ab18 (antibody, IgG1, V domains shown) VH: QVQLVESGGGVVQPGRSLRLSCAASGFTFSDYAMVWVRQAPGKGLEWVSAISGSGAATYFADSVKGRFTISRDNSKNTLYLQMNSLRAEDTAVYYCATVSSGHWDFDYWGQGTLVTVSS VL: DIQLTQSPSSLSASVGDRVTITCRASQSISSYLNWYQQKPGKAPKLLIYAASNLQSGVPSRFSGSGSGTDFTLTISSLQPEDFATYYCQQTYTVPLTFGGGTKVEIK"
  Cell AVRG (average KD) [nM]: 6.26
- binder: "Ab14 (antibody, IgG1, V domains shown) VH: EVQLLESGGGLVQPGGSLRLSCAASGFTFSAYAMTWVRQAPGKGLEWVSAISGTGGSTYYADSVKGRFTISRDNSKNTLYLQMNSLRAEDTAVYYCARVSSGHWDFDYWGQGTLVTVSS VL: DIQMTQSPSSLSASVGDRVTITCRASQSISSYLNWYQQKPGKAPKLLIYAASSLQSGVPSRFSGSGSGTDFTLTISSLQPEDFATYYCQQVYDPPLTFGGGTKVEIK"
  Cell AVRG (average KD) [nM]: 5.92
- binder: "Ab19 (antibody, V domains shown) VH: QVQLVESGGGVVQPGRSLRLSCAASGFTFSSFAMTWVRQAPGKGLEWVSAISGSGAATYFADSVKGRFTISRDNSKNTLYLQMNSLRAEDTAVYYCARVSSGHWDFDEWGQGTLVTVSS VL: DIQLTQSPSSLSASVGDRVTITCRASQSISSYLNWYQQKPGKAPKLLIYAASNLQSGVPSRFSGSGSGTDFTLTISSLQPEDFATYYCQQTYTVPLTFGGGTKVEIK"
  Cell AVRG (average KD) [nM]: 5.95
